System: rodent lifetime carcinogenesis bioassay, tumor incidence TD50
Test: carcinogenic potency in animals, long-term in vivo studies, CPDB compilation (AID 1745844)
Settings: rat; strain Fischer 344; males; by gavage; site: lung; lesion: adenocarcinoma; dosed 30 weeks; study length 102 weeks
We begin with a simple list: items and their reported TD50.

CPD_SMILES	TD50
CCCCCCCCCCN(C)N=O	8.32 mg/kg/day
CCCCCCCCCCCCCCN(C)N=O	60.5 mg/kg/day

###

Tested on: rodent lifetime carcinogenesis bioassay, tumor incidence TD50
Test: carcinogenic potency in animals, long-term in vivo studies, CPDB compilation (AID 1745844)
Details: mouse; strain ICR; females; inhaled; site: liver; lesion: adenoma; dosed 104 weeks; study length 107 weeks

CPD_SMILES	TD50 [mg/kg/day]
ClC=C(Cl)Cl	42300
